Record form. Attribute: combination Emax. Fill in for each entry.
Test system: OVCAR-3 (Ovarian Carcinoma)
Assay Name: combination Emax (second highest fraction inhibited in the dose matrix, 72 h); higher = more inhibition; extreme values may be limits of the assay
Number only, please.

Enquiry: Find the measured combination Emax: item Cn1cnc2c(F)c(Nc3ccc(Br)cc3Cl)c(C(=O)NOCCO)cc21 [Selumetinib] + CC(C)n1c(=O)n(C)c2cnc3cc(F)c(-c4ccc(OCCCN5CCCCC5)nc4)cc3c21 [AZD1390] (first compound max 10 µM, 7x7, partner max 0.3 µM) , target or system OVCAR-3 (Ovarian Carcinoma).
Return: 0.048

Enquiry: Report combination Emax for NC1(C(=O)N[C@@H](CCO)c2ccc(Cl)cc2)CCN(c2ncnc3[nH]ccc23)CC1 [Capivasertib] + Cn1cnc2c(F)c(Nc3ccc(Br)cc3Cl)c(C(=O)NOCCO)cc21 [Selumetinib] (first compound max 10 µM, 7x7, partner max 10 µM) tested on OVCAR-3 (Ovarian Carcinoma).
Return: 0.317

Enquiry: Lab note: need combination Emax for CC1(C)CCC(CN2CCN(c3ccc(C(=O)NS(=O)(=O)c4ccc(NCC5CCOCC5)c([N+](=O)[O-])c4)c(Oc4cnc5[nH]ccc5c4)c3)CC2)=C(c2ccc(Cl)cc2)C1 [Venetoclax] + Cc1cc2ncnn2cc1Nc1ncc2c(n1)n(C1CCOCC1)c(=O)n2C [AZD7648] (first compound max 1 µM, 7x7, partner max 10 µM) on OVCAR-3 (Ovarian Carcinoma), anyone have it?
Return: 0.196

Enquiry: Tell me reported combination Emax for CN(C)CCCOc1ccc(-c2ccc3ncc4c(c3c2)n(C2CCOCC2)c(=O)n4C)cn1 [AZD0156] + C=CCn1c(=O)c2cnc(Nc3ccc(N4CCN(C)CC4)cc3)nc2n1-c1cccc(C(C)(C)O)n1 [AZD1775] (first compound max 1 µM, partner max 1 µM) , tested with OVCAR-3 (Ovarian Carcinoma).
Return: 0.32

Enquiry: Under OVCAR-3 (Ovarian Carcinoma): combination Emax value of CC1(C)CCC(CN2CCN(c3ccc(C(=O)NS(=O)(=O)c4ccc(NCC5CCOCC5)c([N+](=O)[O-])c4)c(Oc4cnc5[nH]ccc5c4)c3)CC2)=C(c2ccc(Cl)cc2)C1 [Venetoclax] + C[C@@H]1COCCN1C2=NC(=NC(=C2)C3(CC3)[S@](=N)(=O)C)C4=C5C=CNC5=NC=C4 [AZD6738] (first compound max 1 µM, 7x7, partner max 10 µM) ?
Return: 0.48

Enquiry: combination Emax of COc1cccc(OCCCN)c1-c1cc(Nc2cnc(C#N)cn2)n[nH]1 [Prexasertib] + C[C@@H]1COCCN1C2=NC(=NC(=C2)C3(CC3)[S@](=N)(=O)C)C4=C5C=CNC5=NC=C4 [AZD6738] (first compound max 1 µM, 7x7, partner max 10 µM) on OVCAR-3 (Ovarian Carcinoma)?
Return: 0.773

Enquiry: Any idea what combination Emax came out for CN(CCO)CC[C@H](CSc1ccccc1)Nc1ccc(S(=O)(=O)NC(=O)c2ccc(N3CCC([C@@H](O)c4ccccc4-c4ccc(Cl)cc4)CC3)cc2)cc1S(=O)(=O)C(F)(F)F [AZD4320] + C[C@@H](Nc1cc(F)cc(F)c1)c1cc(C(=O)N(C)C)cc2c(=O)cc(N3CCOCC3)oc12 [AZD8186] (first compound max 1 µM, 7x7, partner max 3 µM) on OVCAR-3 (Ovarian Carcinoma)?
Return: 0.512
